Origin of the recorded values: PubChem BioAssay

assay: reduction of polyQ htt aggregates in cells – imaging, exon1htt(103Q)mCFP cells, high-content imaging, primary screen (AID 483); conditions: exon1htt(103Q)mCFP cell line, aggregate imaging, at 2 µM; measured here: cell count, toxicity;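 note: compound exposure lasted 3 days before fixation; percent of the per-plate median nuclei count of sample wells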
observed-property: nuclei count (%)
Numbers only, in %.

Examples with their reported nuclei count follow.
molecule="COc1ccccc1C1CC(c2ccc(C)cc2)Nc2ncnn21 (stereo not given)" recorded_number=109
molecule=CC(=O)c1cn(CC(=O)NCc2ccc3c(c2)OCO3)c2ccccc12 recorded_number=108
molecule=COc1ccc(N2CCN(c3ccc(NC(=O)C4CCCCC4)cc3C#N)CC2)cc1 recorded_number=104
molecule=O=C(Cn1nc(Cc2ccncc2)c2ccccc2c1=O)N1CCN(C(=O)c2ccco2)CC1 recorded_number=110

Now for the molecule whose nuclei count we want.
Name the recorded nuclei count for `COc1cccc(-c2csc(N3CCN(CC(=O)Nc4ccc5c(c4)OCO5)CC3)n2)c1` .
88.4
